Data credit: patent US20030236190A1

biological target: human insulin receptor (HIR) (human, UniProt P06213 28-1382, limits assumed); test: 125I-insulin competition, solubilised HIR
No end group written: not given here.
Mark each entry satisfied if its Kd sits below 2 nM, and not satisfied for all others.

- SLEEEWAQIQCEVWGRGCPSESFYDWFERQL [S606]: satisfied
- SLEEEWAQIECEVYGRGCPSESFYDWFERQL [S557]: satisfied
- SLEEEWAQIEEVWGRGSESFYDWFERQLG [S571]: satisfied
- WLDQEWAWVQCEVYGRGCPSGGSGGSGSLDESFYDWFERQLG [S457]: satisfied
- S442 (not fully specified (bridges); cysteine pairing not given here; also: bond at chain A 16 to a chain's C-terminus) peptide 1: ESFYDWFERQLGGGGK peptide 2: AWVQCEVYGRGCPS: not satisfied
- ESFYDWFERQL [S399]: not satisfied
